- method.description: Apparent volume of distribution in rat at 1 mg/kg, iv
- Type: ADME, organism-based
- setup.conditions: in vivo, read-out: Vz
value.kind: Vd (L/kg)

CC(C)C[C@](C)(N)COc1ccc(-c2ccnc(C(F)F)c2)nc1C(F)F ... 25
CC(C)C[C@](C)(N)COc1ccc(-c2ccnc(C(F)F)c2)c2nccn12 ... 25

----------
- method.description: Half-life in C57BL/6J mouse at 1 mg/kg, iv
- Type: ADME, organism-based
- setup.conditions: in vivo
value.kind: half-life (min)

CC(C)C[C@](C)(N)COc1ccc(-c2ccnc(C(F)F)c2)c2nccn12 ... 1020

a = CC(C)C[C@](C)(N)COc1ccc(-c2ccnc(C(F)F)c2)nc1C(F)F
b = CC(C)C[C@](C)(N)COc1ccc(-c2ccnc(C(F)F)c2)n2cncc12
Given the two records a and b , choose the one whose half-life value is lower. Give the label under which the chosen entry appears.
b
(b: 168 min, a: 1040 min)

----------
- method.description: Clearance in dog at 1 mg/kg, iv
- Format: ADME, organism-based, Canis lupus familiaris
- setup.conditions: in vivo
value.kind: clearance (mL/min/kg)

I = CC(C)C[C@](C)(N)COc1ccc(-c2ccnc(C(F)F)c2)nc1C(F)F
II = CC(C)C[C@](C)(N)COc1ccc(-c2ccnc(C(F)F)c2)c2nccn12
Parameter metric = clearance. Return the lower-valued option from I and II . Pick one; state its label.
I
